This listing pairs compounds with measured growth.
System: IGROV1 ovarian
Experiment: NCI-60 one-dose screen, 48 h (100 = growth as untreated, 0 = no growth, -100 = all killed)
Settings: 10 µM unless noted
Protocol: Growth inhibition of the IGROV1 human tumor cell line is measured as a screen for anti-cancer activity. Cells are grown in 96 well plates and exposed to the test compound for 48 hours. Compounds are tested at a single concentration, which is 10^-5 M for most compounds. The reported endpoint is percent growth (GI% or GIPRCNT), where numbers from 0 - 100% represent growth inhibition, and numbers from -100% - 0 represent cell death. For example, a value of 40 represents 60% growth inhibition. […]
The panel holds about 83,000 compounds, 20% with a hit somewhere; the sample as a whole holds those more often.
Use % as the unit, but write only the number.

Recorded growth, per entry:
compound | system-under-test | experimental-readout | unit-descriptor | measurement
CCOP(=O)(Nc1ccc2c(c1)/C(=N/NC(N)=S)c1ccccc1-2)OCC | IGROV1 ovarian | growth | % | 132
CNC(=O)Oc1ccc(C(C)(C)C)cc1OC(=O)NC | IGROV1 ovarian | growth | % | 104
C=COC(=O)CCN1CC1 | IGROV1 ovarian | growth | % | 108

May I ask what growth has been recorded for CC(C)=CCC/C(C)=C/C=N\N=C(/N)N[N+](=O)[O-] ?
99.5

Okay, and CCn1c2ccccc2c2cc(C(=O)c3ccc(C)c4ccccc34)ccc21 ?
21.4

###

system: M14 melanoma; assay: NCI-60 one-dose screen, 48 h (100 = growth as untreated, 0 = no growth, -100 = all killed); details: 10 µM unless noted
The panel holds about 83,000 compounds, 20% with a hit somewhere; the sample as a whole holds those more often. The source made the active and inactive calls. Rule for the calls: active = growth percent below 10; inactive = the rest.
experimental-readout: growth

molecule | system-under-test | experimental-readout | measurement
O=c1[nH]cc(N(CCCl)CCCl)c(=O)[nH]1 | M14 melanoma | growth | 73.5% (inactive)
Nc1ccc(Cl)cc1 | M14 melanoma | growth | 99.5% (inactive)
O=C1OCC2=C1C(c1ccccc1)c1cc3c(cc1N2)OCO3 (configuration not stated) | M14 melanoma | growth | 10% (inactive)
Cc1c(O)c(CN(CCCl)CCCl)cc(CN(CCCl)CCCl)c1O | M14 melanoma | growth | 92.4% (inactive)
Fc1ccc(C2=CCNCC2)cc1 | M14 melanoma | growth | 98.9% (inactive)
CN1CCC(c2c[nH]c3ccccc23)C1 (configuration not stated) | M14 melanoma | growth | 93% (inactive)

May I ask what growth has been recorded for CC(C)CCC(=O)O[C@H]1CC[C@H]2[C@@H]3CCC4=CC(=O)CC[C@]4(C)[C@H]3CC[C@]12C ?
98.9% (inactive)

Okay, and O=[N+]([O-])c1cc(I)cc([N+](=O)[O-])c1 ?
98.8% (inactive)

Okay, and CN(C)C(=O)Oc1ccccc1 ?
103% (inactive)

Okay, and C=CCc1cc2c(cc1OCC)OCO2 ?
92.9% (inactive)

Okay, and CCNc1nc(Cl)nc(NCC)n1 ?
101% (inactive)

Okay, and COC(=O)[C@@]1(C)CC[C@]2(C)CC[C@]3(C)C4=CC(=O)c5c(cc(O)c(O)c5C)[C@]4(C)CC[C@@]3(C)[C@@H]2C1 ?
66.4% (inactive)

###

system: HS 578T breast; test: NCI-60 one-dose screen, 48 h (100 = growth as untreated, 0 = no growth, -100 = all killed); details: 10 µM unless noted
This is part of a sample that, as a whole, favours compounds with a hit. Of some 83,000 tested, about 20% had one in any assay.
experimental-readout: growth (%)
Use % as the unit, but write only the number.

Recorded growth, per entry:
molecule | growth / %
O=C(N/N=C\c1ccc(N(CCCl)CCCl)cc1)c1cccc([N+](=O)[O-])c1 | 64.2
CC1=C(O)[C@@](C)(CCCCC[C@H](C)CCCCc2ccc(O)cc2)OOC1=O | 98.1

Kindly consider the entry below.
May I ask what growth has been recorded for CCCCCCCCCCCCCCCCCC1OC[C@@H](COC(=O)O[C@@H](C(=O)O[C@H]2C[C@@]3(O)[C@@H](OC(=O)c4ccccc4)[C@@H]4[C@]5(OC(C)=O)CO[C@@H]5C[C@H](O)[C@@]4(C)C(=O)[C@H](OC(C)=O)C(=C2C)C3(C)C)[C@@H](NC(=O)c2ccccc2)c2ccccc2)O1 (stereo partly specified) ?
57.3

###

This listing pairs compounds with measured growth.
test system: EKVX NSCLC; assay: NCI-60 one-dose screen, 48 h (100 = growth as untreated, 0 = no growth, -100 = all killed); conditions: 10 µM unless noted
About 83,000 compounds went through this panel and 20% of them were active in at least one assay; those are over-represented in the sample as a whole.
Use % as the unit, but write only the number.

Recorded growth, per entry:
compound | system-under-test | experimental-readout | unit-descriptor | measurement
O=C(O)C(Cl)(Cl)C(F)(F)F | EKVX NSCLC | growth | % | 105
COc1ccc2c(c1)c(-c1nc(-c3cn(C)c4ncccc34)cs1)cn2CCCCN1CCCCC1 | EKVX NSCLC | growth | % | 55.4
CN(C)CC(C(=O)Cc1ccccc1)c1ccccc1 (centres undefined) | EKVX NSCLC | growth | % | 110
CC[C@H](C)[C@H](NC(=O)[C@H]1CCCCN1C)C(=O)N(C)[C@H](CCc1nc(C(=O)N[C@@H](Cc2ccccc2)C[C@H](C)C(=O)OC)cs1)C(C)C | EKVX NSCLC | growth | % | 47.3
C[C@@]12CC[C@@H](O)C[C@@H]1CC[C@H]1[C@H]2CC[C@@]2(C)[C@H](c3ccc(=O)oc3)CC[C@@]12O | EKVX NSCLC | growth | % | -86.4

Kindly consider the entry below.
# value lookup — system EKVX NSCLC, readout growth, item CCOC(=O)CCC(NC(=O)C(Cc1ccc(N(CCCl)CCCl)cc1)NC=O)C(=O)OCC (centres undefined)
55.4

###

test system: OVCAR-3 ovarian; experiment: NCI-60 one-dose screen, 48 h (100 = growth as untreated, 0 = no growth, -100 = all killed); details: 10 µM unless noted
This is part of a sample that, as a whole, favours compounds with a hit. Of some 83,000 tested, about 20% had one in any assay.
experimental-readout: growth (%)
Use % as the unit, but write only the number.

Recorded growth, per entry:
compound | experimental-readout | unit-descriptor | measurement
CCOP1(=O)CC(C)=C(Cl)C(P(=O)(OCC)OCC)C1 (configuration not stated) | growth | % | 94.5
CC(=O)OC1C(OC/C2=C/C3[C@@H](C(C)C)CC=C(C)[C@@H]3CC(OC(=O)/C=C/c3cn(C)cn3)[C@]3(C)C=C[C@@]2(O)O3)OCC(O)C1O (some centres not stated) | growth | % | 15.3
COC(=O)[C@@H](C)C[C@H](Cc1ccccc1)NC(=O)c1csc([C@@H](C[C@H](C(C)C)N(C)C(=O)C2(NC(=O)[C@H]3CCCCN3C)CCC2)OC(C)=O)n1 | growth | % | -6.95
COC(=O)[C@@H](C)C[C@H](Cc1ccccc1)NC(=O)c1nc([C@@H](C[C@H](C(C)C)N(C)C(=O)[C@@H](NC(=O)[C@H]2CCCN2C)C(C)C)OC(C)=O)sc1C | growth | % | -9.82
N#C[S-].[Au+].c1ccc(CN2[CH-]N(Cc3ccccc3)C(c3ccccc3)=C2c2ccccc2)cc1 | growth | % | -6.54
O=C1C=C(N2C3C4CCC(C4)C32)C(=O)C=C1c1ccccc1 (configuration not stated) | growth | % | 74.5

Kindly consider the entry below.
May I ask what growth has been recorded for CC[C@H](C)[C@H](NC(=O)[C@H]1CCCCN1C)C(=O)N(C)[C@H](C[C@@H](O)c1nc(C(=O)N[C@@H](Cc2ccccc2)C[C@H](C)C(=O)O)cs1)C(C)C ?
63.2

###

This listing pairs compounds with measured growth.
system: UACC-257 melanoma; assay: NCI-60 one-dose screen, 48 h (100 = growth as untreated, 0 = no growth, -100 = all killed); conditions: 10 µM unless noted
About 83,000 compounds went through this panel and 20% of them were active in at least one assay; those are over-represented in the sample as a whole. Activity calls are given as the source filed them. How the source made its calls: active means growth percent below 10; inactive means the rest.

Recorded growth, per entry:
compound | system-under-test | growth
COc1ccc(C/C(C)=C(\c2ccc(OCCN3CCOCC3)cc2)c2ccc(OC(=O)Cc3ccccc3)cc2)cc1 | UACC-257 melanoma | -89.2% (active)
CCOP(=O)(Nc1ccc2c(c1)/C(=N/NC(N)=S)c1ccccc1-2)OCC | UACC-257 melanoma | 113% (inactive)
COC(=O)[C@@H](C)C[C@H](Cc1ccccc1)NC(=O)c1csc([C@@H](C[C@H](C(C)C)N(C)C(=O)[C@@H](NC(=O)[C@H]2CCCCN2C)C2CC2)OC(C)=O)n1 | UACC-257 melanoma | 58.3% (inactive)
C[C@@H]1CCC2[C@@H](C)[C@H](OC(=O)CCC(=O)NCCNC(=O)Cc3cc(=O)oc4cc(N(C)C)ccc34)O[C@@H]3O[C@]4(C)CC[C@@H]1C23OO4 (stereo partly drawn) | UACC-257 melanoma | 59.1% (inactive)
CC[C@H](C)[C@H](NC(=O)[C@H]1CCCCN1C)C(=O)N(C)[C@H](C[C@@H](OC(C)=O)c1cccc(C(=O)N[C@@H](Cc2ccccc2)C[C@H](C)C(=O)O)n1)C(C)C | UACC-257 melanoma | 47.9% (inactive)
CC(=O)O[C@H](C[C@H](C(C)C)N(C)C(=O)[C@@H](NC(=O)[C@H]1CCCCN1C)C(C)C)c1cccc(C(=O)N[C@@H](Cc2ccccc2)C[C@H](C)C(=O)O)n1 | UACC-257 melanoma | 48.4% (inactive)
CCCCCSC1C2C(=O)C(Br)=CC13CCNc1c(O)c4c5c(c13)=[N+]2CCC=5C=N4 (stereo not drawn) | UACC-257 melanoma | -79.6% (active)
O=C(O)C(Cl)(Cl)C(F)(F)F | UACC-257 melanoma | 105% (inactive)

# value lookup — system UACC-257 melanoma, readout growth, item CC(=O)O[C@H](C[C@H](C(C)C)N(C)C(=O)[C@@H](NC(=O)[C@H]1CCCCN1C)C(C)C)c1nc(C(=O)N[C@@H](Cc2ccccc2)C[C@H](C)C(=O)O)c(CCOCc2ccccc2)s1
54.5% (inactive)

Okay, and O=c1[nH]cc(N(CCCl)CCCl)c(=O)[nH]1 ?
62% (inactive)

Okay, and CCCCCCCCCCCCCCCCCCOc1ccccc1COP(=O)(O)OOCC[N+](C)(C)C ?
11.5% (inactive)

Okay, and O=C1NC(=O)C(=Cc2cn(C(=O)c3ccccc3)c3ccccc23)C(=O)N1 ?
87% (inactive)

Okay, and Cc1cc(N(CCCl)CCCl)ccc1C=Nc1ccccc1-c1ccccc1 ?
55.3% (inactive)
